The measured values listed here are drawn from ChEMBL document CHEMBL1125048.

- Assayed Target: Adrenergic receptor alpha-1 (Rattus norvegicus, UniProt P15823+P23944+P43140)
- Experimental Details: Binding affinity determined to alpha-1 adrenergic receptor of rat cerebral cortex using [3H]prazosin as radioligand
- Type: tissue-based
Measured Property: Log Ki

input: Looking for the measured Log Ki of Cl.Cl.Clc1cccc2c1CN(CC1=NCCN1)CC2 , can you help?
output: -5.8

input: For Cl.Cl.Clc1cccc2c1CCN(CC1=NCCN1)C2 , what is its reported Log Ki?
output: -5.68

input: Entry CC1c2ccccc2CCN1CC1=NCCN1.Cl.Cl (stereo not given) : reported Log Ki = ?
output: -5.14

input: What measured Log Ki goes with COc1cccc2c1CCN(CC1=NCCN1)C2.Cl.Cl ?
output: -4.72

input: Which measured Log Ki value corresponds to Cl.Cl.c1ccc2c(c1)CN(CC1=NCCN1)C2 ?
output: -5.43

input: Look up Log Ki: Cc1cccc2c1CCN(CC1=NCCN1)C2.Cl.Cl
output: -5.26

input: Find the recorded Log Ki belonging to COc1ccc(OC)c2c1CCN(CC1=NCCN1)C2.Cl.Cl and report it.
output: -4.8

input: Returns the measured Log Ki for the input compound. Input: Cl.Cl.Fc1cccc2c1CN(CC1=NCCN1)CC2
output: -5.5

input: Given the compound Cl.Cl.c1ccc2c(c1)CCN(CC1=NCCN1)C2 , what is its reported Log Ki?
output: -5.67
